System: Human MTAP (Homo sapiens, UniProt Q13126)
Construct: six-histidine tag (His6) (N); made in house; host or cells: E. coli BL21 DE3
Sequence (Q13126 1-283): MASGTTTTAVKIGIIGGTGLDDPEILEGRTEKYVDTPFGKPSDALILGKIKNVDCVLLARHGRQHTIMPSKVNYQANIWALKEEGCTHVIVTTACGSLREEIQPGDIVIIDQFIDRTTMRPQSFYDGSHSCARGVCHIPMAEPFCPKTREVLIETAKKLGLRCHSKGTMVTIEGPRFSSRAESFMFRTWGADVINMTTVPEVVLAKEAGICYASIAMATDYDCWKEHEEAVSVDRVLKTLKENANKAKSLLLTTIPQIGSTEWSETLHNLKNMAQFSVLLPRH
Test protocol: MTAP substrate assay, coupled spectrophotometric (adenine, xanthine oxidase)
Type: biochemical
Condition parameters: 10 min; compound 50 uM, 2 nM MTAP, relative to MTA at 50 uM; read-out: MT-A—50: initial velocity as a percentage of the initial velocity with MTA as substrate
Consider the following compounds; for each one, report its activity at 50 µM.
Answers are plain numbers, in %.

Worked examples, 5 compounds total:
{"Compound structure string": "CCCCCCCCCSC[C@H]1O[C@@H](n2cnc3c(N)ncnc32)[C@H](O)[C@@H]1O", "Value observed": 54.5}
{"Compound structure string": "Nc1ncnc2c1ncn2[C@@H]1O[C@H](CSCc2csc3ccccc23)[C@@H](O)[C@H]1O", "Value observed": 17}
{"Compound structure string": "Nc1ncnc2c1ncn2[C@@H]1O[C@H](CSc2ccc3ccccc3n2)[C@@H](O)[C@H]1O", "Value observed": 47}
{"Compound structure string": "CCCCNCCSC[C@H]1O[C@@H](n2cnc3c(N)ncnc32)[C@H](O)[C@@H]1O", "Value observed": 37.5}
{"Compound structure string": "Nc1ncnc2c1ncn2[C@@H]1O[C@H](CSCCc2c[nH]c3ccccc23)[C@@H](O)[C@H]1O", "Value observed": 18}

Look up activity at 50 µM for the entries below, preserving their order.
1. Nc1ncnc2c1ncn2[C@@H]1O[C@H](CSc2nc3ccccc3[nH]2)[C@@H](O)[C@H]1O
2. COc1ccc2sc(SC[C@H]3O[C@@H](n4cnc5c(N)ncnc54)[C@H](O)[C@@H]3O)nc2c1

1: 26; 2: 33

====

System: Human MTAP (Homo sapiens, UniProt Q13126)
Construct: six-histidine tag (His6) (N); made in house; host or cells: E. coli BL21 DE3
Test protocol: MTAP substrate assay, coupled spectrophotometric (adenine, xanthine oxidase)
Type: biochemical
Condition parameters: compound 10 uM, 2 nM MTAP, relative to MTA at 10 uM
Checkbox rule: MT-A—10: initial velocity as a percentage of the initial velocity with MTA as substrate lower than 10% = Criterion met; MT-A—10: initial velocity as a percentage of the initial velocity with MTA as substrate not lower than 10% = Criterion not met.

Reference set (5 entries):
{"Molecule": "Cc1ccc2[nH]c(SC[C@H]3O[C@@H](n4cnc5c(N)ncnc54)[C@H](O)[C@@H]3O)nc2c1 [2(G)(48)]", "Assigned label": "Criterion met"}
{"Molecule": "Nc1ncnc2c1ncn2[C@@H]1O[C@H](CSc2nc3ccccc3[nH]2)[C@@H](O)[C@H]1O [2(G)(119)]", "Assigned label": "Criterion not met"}
{"Molecule": "Nc1ncnc2c1ncn2[C@@H]1O[C@H](CSc2ccccc2Cl)[C@@H](O)[C@H]1O [2(G)(96)]", "Assigned label": "Criterion met"}
{"Molecule": "Cc1nnc(SC[C@H]2O[C@@H](n3cnc4c(N)ncnc43)[C@H](O)[C@@H]2O)s1 [2(G)(52)]", "Assigned label": "Criterion not met"}
{"Molecule": "Cn1ccnc1SC[C@H]1O[C@@H](n2cnc3c(N)ncnc32)[C@H](O)[C@@H]1O [2(G)(120)]", "Assigned label": "Criterion met"}

Check if MT-A—10: initial velocity as a percentage of the initial velocity with MTA as substrate falls below 10% for Cc1cc(C)c(CSC[C@H]2O[C@@H](n3cnc4c(N)ncnc43)[C@H](O)[C@@H]2O)c(C)c1 [2(G)(137)] .
Criterion met

Check if MT-A—10: initial velocity as a percentage of the initial velocity with MTA as substrate falls below 10% for COC(=O)CCSC[C@H]1O[C@@H](n2cnc3c(N)ncnc32)[C@H](O)[C@@H]1O [2(G)(92)] .
Criterion not met

Check if MT-A—10: initial velocity as a percentage of the initial velocity with MTA as substrate falls below 10% for Nc1ncnc2c1ncn2[C@@H]1O[C@H](CSc2cnccn2)[C@@H](O)[C@H]1O [2(G)(69)] .
Criterion not met

Check if MT-A—10: initial velocity as a percentage of the initial velocity with MTA as substrate falls below 10% for CCCSc1ccc2[nH]c(SC[C@H]3O[C@@H](n4cnc5c(N)ncnc54)[C@H](O)[C@@H]3O)nc2c1 [2(G)(7)] .
Criterion met

Check if MT-A—10: initial velocity as a percentage of the initial velocity with MTA as substrate falls below 10% for COC(=O)c1cnc(SC[C@H]2O[C@@H](n3cnc4c(N)ncnc43)[C@H](O)[C@@H]2O)n1C [2(G)(164)] .
Criterion not met

Check if MT-A—10: initial velocity as a percentage of the initial velocity with MTA as substrate falls below 10% for COC(=O)/C=C/c1ccc(SC[C@H]2O[C@@H](n3cnc4c(N)ncnc43)[C@H](O)[C@@H]2O)cc1 [2(G)(110)] .
Criterion not met

====

Consider the following compounds; for each one, report its MT-A—10: initial velocity as a percentage of the initial velocity with MTA as substrate.
System: Human MTAP (Homo sapiens)
Construct: six-histidine tag (His6) (N); made in house; host or cells: E. coli BL21 DE3
Test protocol: MTAP substrate assay, coupled spectrophotometric (adenine, xanthine oxidase)
Type: biochemical
Condition parameters: compound 10 uM, 2 nM MTAP, relative to MTA at 10 uM
Give bare numbers, in %.

Worked examples, 3 compounds total:
{"Compound": "CN(C)Cc1nnc(SC[C@H]2O[C@@H](n3cnc4c(N)ncnc43)[C@H](O)[C@@H]2O)n1C [2(G)(66)]", "System": "Human MTAP (Homo sapiens)", "Value observed": 6}
{"Compound": "CC(C)c1ccccc1SC[C@H]1O[C@@H](n2cnc3c(N)ncnc32)[C@H](O)[C@@H]1O [2(G)(146)]", "System": "Human MTAP (Homo sapiens)", "Value observed": 28}
{"Compound": "Cc1cccc2[nH]c(SC[C@H]3O[C@@H](n4cnc5c(N)ncnc54)[C@H](O)[C@@H]3O)nc12 [2(G)(46)]", "System": "Human MTAP (Homo sapiens)", "Value observed": 42}

Please examine the following record next.
Reported MT-A—10: initial velocity as a percentage of the initial velocity with MTA as substrate for CC(C)(C)OC(=O)NCCSC[C@H]1O[C@@H](n2cnc3c(N)ncnc32)[C@H](O)[C@@H]1O [2(G)(39)] was 7

====

System: Human MTAP (Homo sapiens)
Construct: six-histidine tag (His6) (N); made in house; host or cells: E. coli BL21 DE3
Sequence (Q13126 1-283): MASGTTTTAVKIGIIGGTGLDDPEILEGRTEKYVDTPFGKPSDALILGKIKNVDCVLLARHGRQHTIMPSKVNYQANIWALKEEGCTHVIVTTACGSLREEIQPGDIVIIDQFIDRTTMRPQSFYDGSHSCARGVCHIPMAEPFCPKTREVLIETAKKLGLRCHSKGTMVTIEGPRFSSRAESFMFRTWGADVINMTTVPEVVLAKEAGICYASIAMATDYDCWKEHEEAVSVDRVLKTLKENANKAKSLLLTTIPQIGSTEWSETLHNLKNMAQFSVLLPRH
Test protocol: MTAP substrate assay, coupled spectrophotometric (adenine, xanthine oxidase)
Format: biochemical
Condition parameters: 10 min; compound 50 uM, 2 nM MTAP, relative to MTA at 50 uM; read-out: MT-A—50: initial velocity as a percentage of the initial velocity with MTA as substrate
Consider the following compounds; for each one, report its activity at 50 µM.
One number for each entry, in %.

Worked examples, 6 compounds total:
{"Compound": "COC(=O)/C=C/c1ccc(SC[C@H]2O[C@@H](n3cnc4c(N)ncnc43)[C@H](O)[C@@H]2O)cc1", "Unit name": "%", "Value observed": 9}
{"Compound": "CSc1ccc(SC[C@H]2O[C@@H](n3cnc4c(N)ncnc43)[C@H](O)[C@@H]2O)cc1", "Unit name": "%", "Value observed": 15}
{"Compound": "Nc1ncnc2c1ncn2[C@@H]1O[C@H](CSc2ccccc2O)[C@@H](O)[C@H]1O", "Unit name": "%", "Value observed": 23}
{"Compound": "CC(SC[C@H]1O[C@@H](n2cnc3c(N)ncnc32)[C@H](O)[C@@H]1O)c1ccccc1 (stereo partly shown)", "Unit name": "%", "Value observed": 33}
{"Compound": "CC(C)(C)c1ccc(SC[C@H]2O[C@@H](n3cnc4c(N)ncnc43)[C@H](O)[C@@H]2O)cc1", "Unit name": "%", "Value observed": 9}
{"Compound": "Nc1ncnc2c1ncn2[C@@H]1O[C@H](CSc2nc(O)c3cn[nH]c3n2)[C@@H](O)[C@H]1O", "Unit name": "%", "Value observed": 46}

Reported activity at 50 µM for Nc1ncnc2c1ncn2[C@@H]1O[C@H](CSc2ccccc2OC(F)(F)F)[C@@H](O)[C@H]1O was 7
